Viability (%) at different lipid concentrations, mean listing for selected molecules.
Test system: HepG2 cell line
Protocol: In vitro toxicity study on HepG2 cell line (resazurin, viability and IC50)
Type: cell-based, human
Study conditions: HepG2 cells, 25 μM lipid, 48 h post-treatment, resazurin, relative to ethanol vehicle controls
Report the value in % with no unit label.

# example entries with known answers
{"Molecule": "CCCCCCCC/C=C\\CCCCCCCCOC(=O)C(C)(C)CC(OCCCCCCCC/C=C\\CCCCCCCC)O[Si](C)(C)OCCCCCCN(C)CCCCO (stereo not drawn) [Example 91]", "Value measured": 108.4}
{"Molecule": "CCCCCCCCCCCOC(=O)CCCCCN(CCO)CCCCCCCC(=O)OC(CCCCCCCC)CCCCCCCC [SM-102, reference compound]", "Value measured": 101.7}
{"Molecule": "CCCCC/C=C\\C/C=C\\CCCCCCCCO[Si](C)(C)OC(CCCCCCC/C=C\\C/C=C\\CCCCC)OCCCCCCN(CCO)CCO (stereo not drawn) [Example 40]", "Value measured": 98.9}
{"Molecule": "CCCCC/C=C\\C/C=C\\CCCCCCCCOC(CCCCCCC/C=C\\C/C=C\\CCCCC)O[Si](C)(C)OCCCCCCN(CCO)CCN(CCO)CCCCCCO[Si](C)(C)OC(CCCCCCC/C=C\\C/C=C\\CCCCC)OCCCCCCCC/C=C\\C/C=C\\CCCCC (stereo not drawn) [Example 71]", "Value measured": 106.2}

For CCCCC/C=C\C/C=C\CCCCCCCCOC(CCCCCCC/C=C\C/C=C\CCCCC)O[Si](C)(C)OCCCCCCN(C)C (stereo not drawn) [Example 79] , what is its reported Viability (%) at different lipid concentrations, mean?
99.57

* * *

Protocol: LNP size, PDI and zeta potential by Dynamic Light Scattering (Method A)
Assay type: physicochemical
Study conditions: LNP formulated with the lipid, DLS
Parameter: PDI
Format: numeric value only, no unit, no commentary.

# example entries with known answers
{"Molecule": "CCCCCCCC/C=C\\CCCCCCCCOC(=O)C(C)(C)CC(OCCCCCCCC/C=C\\CCCCCCCC)O[Si](C)(C)OCCCCCCN(CCO)CCN(CCO)CCCCCCO[Si](C)(C)OC(CC(C)(C)C(=O)OCCCCCCCC/C=C\\CCCCCCCC)OCCCCCCCC/C=C\\CCCCCCCC (stereo not drawn)", "PDI": 0.14}
{"Molecule": "CCCCC/C=C\\C/C=C\\CCCCCCCC(OCCCCCCCCCCCCCCCC)O[Si](C)(C)OCCCCCCN(CCO)CCO (stereo not drawn)", "PDI": 0.083}

For CCCCC/C=C\C/C=C\CCCCCCCCOC(CCCCCCC/C=C\C/C=C\CCCCC)O[Si](C)(C)O[Si](C)(C)CCCCCCN(CCO)CCO (stereo not drawn) , what is its reported PDI?
0.26

Please give the result for CCCCC/C=C\C/C=C\CCCCCCCCOC(CCCCCCC/C=C\C/C=C\CCCCC)O[Si](C)(C)OCCCCCCN1CCCCC1 (stereo not drawn) too.
0.041

Please give the result for CCCCCCCCCCCCCCCCOC(CCCCCCCCCCCCCCC)O[Si](C)(C)OCCCCCCN(CCO)CCO (stereo not drawn) too.
0.396

Please give the result for CCCCCCCC/C=C\CCCCCCCCOC(=O)C(C)(C)CC(OCCCCCCCC/C=C\CCCCCCCC)O[Si](C)(C)OCCCCCCN1CCCC1CO (stereo not drawn) too.
0.14
